Each recorded value in this set is attributed to ChEMBL document CHEMBL1681730.

# measurement_target: Steroid 17-alpha-hydroxylase/17,20 lyase (Homo sapiens, UniProt P05093)
# Sequence (P05093 whole entry): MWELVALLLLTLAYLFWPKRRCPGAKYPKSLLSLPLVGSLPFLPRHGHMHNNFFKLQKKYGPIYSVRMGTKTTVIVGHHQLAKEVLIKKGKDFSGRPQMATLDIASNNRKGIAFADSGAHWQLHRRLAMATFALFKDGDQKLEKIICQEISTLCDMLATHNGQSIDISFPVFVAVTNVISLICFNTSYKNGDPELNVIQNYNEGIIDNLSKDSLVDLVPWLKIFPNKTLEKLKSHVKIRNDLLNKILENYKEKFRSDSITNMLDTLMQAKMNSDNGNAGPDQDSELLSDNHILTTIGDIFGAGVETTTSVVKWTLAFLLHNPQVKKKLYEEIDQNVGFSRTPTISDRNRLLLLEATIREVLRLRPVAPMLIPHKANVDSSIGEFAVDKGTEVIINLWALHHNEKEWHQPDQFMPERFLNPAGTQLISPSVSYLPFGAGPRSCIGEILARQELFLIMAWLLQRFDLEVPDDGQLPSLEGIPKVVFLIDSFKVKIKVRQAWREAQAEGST
property_measured: pIC50
Answers are plain numbers, as −log10 of the molar value.

Answered cases to consult:
{"columns": ["compound", "pIC50"],
 "data": [
  ["CC(C)NC(=O)c1ccc2cc(C(O)(c3c[nH]cn3)C(C)C)ccc2c1 (racemic)", 7.12],
  ["CNC(=O)c1ccc2cc(C(O)(c3c[nH]cn3)C(C)C)ccc2c1 (racemic)", 7.80],
  ["CC(C)C(O)(c1ccc2c3c(ccc2c1)C(=O)NC3)c1c[nH]cn1 (stereo in doubt; (+)-27a)", 7.22],
  ["CC(C)C(O)(c1ccc2cc(C(N)=O)ccc2c1)c1c[nH]cn1 (racemic)", 7.52],
  ["CNC(=O)c1cc2ccc(C(O)(c3c[nH]cn3)C(C)C)cc2cc1C (racemic)", 7.41]
]}

For every record below, what is its pIC50?
1. CC(C)[C@@](O)(c1ccc2c3c(ccc2c1)C(=O)N(C)C3)c1cnc[nH]1
2. CC(C)C(O)(c1ccc2c3c(ccc2c1)C(=O)NC3)c1c[nH]cn1 (single isomer, unassigned; (-))
3. CCCNC(=O)c1ccc2cc(C(O)(c3cnc[nH]3)C(C)C)ccc2c1 (racemic)

Result:
[6.57, 7.82, 7.42]

Problem: Param item = CC(C)C(O)(c1ccc2cc3c(cc2c1)CN(C)C3=O)c1c[nH]cn1 (racemic) ; retrieve measured pIC50.
Result: 7.72

====

Record set of pIC50 for target or system Cytochrome P450 3A4 (Homo sapiens).
Answers are plain numbers, as −log10 of the molar value.

Answered cases to consult:
{"columns": ["compound", "pIC50"],
 "data": [
  ["CC(C)NC(=O)c1ccc2cc(C(O)(c3c[nH]cn3)C(C)C)ccc2c1 (racemic)", 5.03],
  ["CNC(=O)c1cc2ccc(C(O)(c3c[nH]cn3)C(C)C)cc2cc1C (racemic)", 5.44],
  ["CCNC(=O)c1ccc2cc(C(O)(c3c[nH]cn3)C(C)C)ccc2c1 (racemic)", 5.24]
]}

Consider the additional compound presented here.
Problem: Param item = CNC(=O)c1ccc2cc(C(O)(c3c[nH]cn3)C(C)C)ccc2c1 (racemic) ; retrieve measured pIC50.
Result: 5.44

====

# measurement_notes: Oral bioavailability in Crl:CD(SD)IGS rat at 10 mg/kg by HPLC analysis
# Type: ADME, organism-based
# experimental_setup: in vivo
property_measured: bioavailability (%)
One number for each entry, in %.

Problem: Param item = CC(C)[C@](O)(c1ccc2c3c(ccc2c1)C(=O)N(C)C3)c1cnc[nH]1 ; retrieve measured bioavailability.
Result: 128

====

# measurement_notes: Tmax in Crl:CD(SD)IGS rat at 10 mg/kg, po by HPLC analysis
# Type: ADME, organism-based
# Design: dose 10 mg/kg, route oral
# experimental_setup: in vivo
property_measured: Tmax (min)
Numbers only, in min.

Problem: Param item = CC(C)[C@](O)(c1ccc2c3c(ccc2c1)C(=O)N(C)C3)c1cnc[nH]1 ; retrieve measured Tmax.
Result: 25.2

====

I'd appreciate it if you could supply Ratio IC50 values for the items below.
# Organism: Homo sapiens
# measurement_notes: Ratio of IC50 for human CYP3A4 to IC50 for human 17,20-lyase
Answers are plain numbers.

Answered cases to consult:
{"columns": ["compound", "observed_result"],
 "data": [
  ["CNC(=O)c1ccc2cc(C(O)(c3c[nH]cn3)C(C)C)ccc2c1 (racemic)", 225],
  ["COC(=O)c1ccc2cc(C(O)(c3c[nH]cn3)C(C)C)ccc2c1 (racemic)", 58]
]}

Consider the additional compound presented here.
Problem: Param item = CC(=O)c1ccc2cc(C(O)(c3c[nH]cn3)C(C)C)ccc2c1 (racemic) ; retrieve measured Ratio IC50.
Result: 50

====

# measurement_target: Cytochrome P450 2D6 (Homo sapiens, UniProt P10635)
# Sequence (P10635 whole entry): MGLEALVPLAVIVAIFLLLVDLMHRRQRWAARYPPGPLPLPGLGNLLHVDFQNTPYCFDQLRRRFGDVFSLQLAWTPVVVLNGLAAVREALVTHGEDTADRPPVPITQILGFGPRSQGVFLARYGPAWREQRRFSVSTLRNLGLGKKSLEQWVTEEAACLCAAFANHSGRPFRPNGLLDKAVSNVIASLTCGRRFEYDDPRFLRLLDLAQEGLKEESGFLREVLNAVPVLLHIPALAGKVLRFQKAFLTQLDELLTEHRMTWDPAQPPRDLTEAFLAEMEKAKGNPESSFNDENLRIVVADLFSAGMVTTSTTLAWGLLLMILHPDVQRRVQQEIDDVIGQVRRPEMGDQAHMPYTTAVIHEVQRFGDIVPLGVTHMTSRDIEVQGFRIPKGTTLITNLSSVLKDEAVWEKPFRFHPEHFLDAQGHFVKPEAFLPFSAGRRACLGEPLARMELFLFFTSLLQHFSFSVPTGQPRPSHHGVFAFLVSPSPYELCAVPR
pIC50: −log10 of the molar value.
property_measured: pIC50

Problem: Param item = CC(C)[C@](O)(c1ccc2c3c(ccc2c1)C(=O)N(C)C3)c1cnc[nH]1 ; retrieve measured pIC50.
Result: < 4.52

====

# measurement_target: Steroid 17-alpha-hydroxylase/17,20 lyase (Rattus norvegicus, UniProt P11715)
# measurement_notes: Inhibition of 17,20 lyase activity in Sprague-Dawley rat testicular microsomes
# Design: species or system Testis
I'd appreciate it if you could supply pIC50 values for the items below.
Answers are plain numbers, as −log10 of the molar value.

{"columns": ["molecule", "measurement_target", "pIC50"],
 "data": [
  ["CC(C)C(O)(c1ccc2cc3c(cc2c1)CN(C)C3=O)c1c[nH]cn1 (racemic)", "Steroid 17-alpha-hydroxylase/17,20 lyase (Rattus norvegicus, UniProt P11715)", 7.15],
  ["CC(=O)c1ccc2cc(C(O)(c3c[nH]cn3)C(C)C)ccc2c1 (racemic)", "Steroid 17-alpha-hydroxylase/17,20 lyase (Rattus norvegicus, UniProt P11715)", 7.85],
  ["CC(C)[C@@](O)(c1ccc2c3c(ccc2c1)C(=O)N(C)C3)c1cnc[nH]1", "Steroid 17-alpha-hydroxylase/17,20 lyase (Rattus norvegicus, UniProt P11715)", 6.96]
]}

Problem: Param item = CNC(=O)c1cc2ccc(C(O)(c3c[nH]cn3)C(C)C)cc2cc1C (racemic) ; retrieve measured pIC50.
Result: 7.92

====

# measurement_notes: AUC (0 to 24 hrs) in Crl:CD(SD)IGS rat at 1 mg/kg, iv by HPLC analysis
# Format: ADME, organism-based
# Set-up: time < 24 hr, dose 1 mg/kg, route intravenous
# experimental_setup: plasma
property_measured: AUC(0-t) at 24 h (µg·h/mL)
Give bare numbers, in µg·h/mL.

Problem: Param item = CC(C)[C@](O)(c1ccc2c3c(ccc2c1)C(=O)N(C)C3)c1cnc[nH]1 ; retrieve measured AUC(0-t) at 24 h.
Result: 0.573

====

# measurement_target: Cytochrome P450 2C8 (Homo sapiens, UniProt P10632)
# Sequence (P10632 whole entry): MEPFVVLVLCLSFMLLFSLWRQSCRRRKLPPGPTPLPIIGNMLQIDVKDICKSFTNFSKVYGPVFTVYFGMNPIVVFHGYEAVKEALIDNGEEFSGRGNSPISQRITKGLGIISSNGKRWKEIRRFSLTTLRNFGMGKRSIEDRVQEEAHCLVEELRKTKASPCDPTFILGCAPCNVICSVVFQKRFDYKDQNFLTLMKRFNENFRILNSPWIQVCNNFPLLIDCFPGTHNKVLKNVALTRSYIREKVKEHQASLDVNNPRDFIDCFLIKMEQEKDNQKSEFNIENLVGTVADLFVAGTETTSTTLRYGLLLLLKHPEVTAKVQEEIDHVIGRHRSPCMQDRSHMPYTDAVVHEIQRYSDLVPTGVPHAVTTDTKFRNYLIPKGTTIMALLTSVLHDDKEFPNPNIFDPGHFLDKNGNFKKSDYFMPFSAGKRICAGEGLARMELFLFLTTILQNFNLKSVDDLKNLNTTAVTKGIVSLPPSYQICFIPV
property_measured: IC50 (µM)
Answers are plain numbers, in µM.

Problem: Param item = CC(C)[C@](O)(c1ccc2c3c(ccc2c1)C(=O)N(C)C3)c1cnc[nH]1 ; retrieve measured IC50.
Result: 28

====

# measurement_target: Steroid 17-alpha-hydroxylase/17,20 lyase (Rattus norvegicus, UniProt P11715)
# Sequence (P11715 whole entry): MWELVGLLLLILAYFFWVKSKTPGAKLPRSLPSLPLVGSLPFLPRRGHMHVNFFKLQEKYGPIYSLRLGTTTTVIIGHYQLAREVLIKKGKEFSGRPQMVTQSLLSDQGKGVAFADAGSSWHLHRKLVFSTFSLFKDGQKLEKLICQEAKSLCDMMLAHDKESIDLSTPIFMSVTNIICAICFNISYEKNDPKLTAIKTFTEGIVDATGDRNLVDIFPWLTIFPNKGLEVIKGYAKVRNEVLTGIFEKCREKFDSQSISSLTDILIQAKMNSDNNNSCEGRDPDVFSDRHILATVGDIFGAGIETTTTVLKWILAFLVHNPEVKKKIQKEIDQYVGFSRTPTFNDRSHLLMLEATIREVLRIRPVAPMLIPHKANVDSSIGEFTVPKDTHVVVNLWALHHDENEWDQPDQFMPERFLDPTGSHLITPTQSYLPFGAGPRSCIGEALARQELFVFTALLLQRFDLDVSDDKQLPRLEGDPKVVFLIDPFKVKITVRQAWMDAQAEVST
property_measured: log10(IC50) (log10 of the value in nM)
# values: log10(IC50), units nM

Answered cases to consult:
{"columns": ["compound", "measurement_target", "observed_result"],
 "data": [
  ["CC(C)C(O)(c1ccc2c3c(ccc2c1)C(=O)NC3)c1c[nH]cn1 (stereo in doubt; (+)-27a)", "Steroid 17-alpha-hydroxylase/17,20 lyase (Rattus norvegicus, UniProt P11715)", 2.26],
  ["CNC(=O)c1ccc2cc(C(O)(c3c[nH]cn3)C(C)C)ccc2c1C (racemic)", "Steroid 17-alpha-hydroxylase/17,20 lyase (Rattus norvegicus, UniProt P11715)", 2.30]
]}

For every record below, what is its log10(IC50)?
1. CC(=O)Nc1ccc2cc(C(O)(c3c[nH]cn3)C(C)C)ccc2c1 (racemic)
2. COC(=O)c1ccc2cc(C(O)(c3c[nH]cn3)C(C)C)ccc2c1 (racemic)
3. CC(C)NC(=O)c1ccc2cc(C(O)(c3c[nH]cn3)C(C)C)ccc2c1 (racemic)

Result:
1: 1.46; 2: 1.63; 3: 1.08
